Target: SSX2 (rSSX2) (UniProt Q16385 1-188)
Sequence (Q16385 whole entry, the tested form may be a part): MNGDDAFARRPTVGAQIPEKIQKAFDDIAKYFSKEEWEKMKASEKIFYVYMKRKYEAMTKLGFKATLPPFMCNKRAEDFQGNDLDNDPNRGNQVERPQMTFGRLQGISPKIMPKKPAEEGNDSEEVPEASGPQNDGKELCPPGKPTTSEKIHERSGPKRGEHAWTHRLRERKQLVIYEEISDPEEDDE
Experiment: MST; Hill coefficient 3.0; 50 nM DNA; EMSA: 20 mM Tris-HCl pH 7.4, 50 mM NaCl, 1 mM DTT (complexes stable at 75 mM, dissolved at 250 mM NaCl; fragment used not stated); MST: 20 mM Tris-HCl pH 7.4, NaCl printed as 50 nM (probably 50 mM), 0.05% NP40, ambient temperature, 2 h
Details: protein: recombinant
pKd: −log10 of the molar value.
Measurement Label: pKd

> print(dat)
                                     binder  reading
1  Cy5 random 30-nt dsDNA (dsDNA) DNA 1: CGTCTATACTTTCACAATGTTGACCTGCAC DNA 2: GTGCAGGTCAACATTGTGAAAGTATAGACG     5.74

Every entry's value here was drawn from paper PMC4191419.
